B1: ATL3 (parent)
chain: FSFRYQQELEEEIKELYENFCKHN

# Variants of: B1
# test.summary: protein stability index of a GFP-peptide fusion (GPS, HEK-293T) (PSI 1-6); higher = more stable;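 further: lentivirally expressed fusions sorted by FACS into six bins by GFP to DsRed ratio, PSI derived from sequencing read proportions per bin multiplied by bin number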
# cond: c terminus: a fixed tail appended
Assign protein stability index to each entry below.
Give bare numbers.

FSARYQQELEEEIKELYENFCKHN [F3A] : 2.93
FDFRYQQELEEEIKELYENFCKHN [S2D] : 2.93
KSFRYQQELEEEIKELYENFCKHN [F1K] : 3.01
FSFTYQQELEEEIKELYENFCKHN [R4T] : 2.02
FSFRYQQELEEEIKELYENFCHHN [K22H] : 2.04

For every item below, please supply its protein stability index.
1. FSFRYQQELEEEIKELYENFIKHN [C21I]
2. FSFRYQQELEESIKELYENFCKHN [E12S]
3. FSFRYQQELEEEIKELYEQFCKHN [N19Q]
4. FSFRYQQELEEEIKKLYENFCKHN [E15K]
5. FSFRYQQELEEEIKELYEHFCKHN [N19H]
6. FSFRYQQELEEEIKELYENFCKGN [H23G]
7. FSFRYQQELEEEIKEKYENFCKHN [L16K]

Response:
1: 2.05; 2: 2.03; 3: 2.04; 4: 2.96; 5: 1.97; 6: 2.04; 7: 3.02

Prompt: Indicate the recorded protein stability index value for this variant: FSFRYRQELEEEIKELYENFCKHN [Q6R]
Response: 2.03
